# System: rats
# protocol.description: Reversal of the effect of the mGluR2 PAM JNJ-42153605-induced inhibition of scopolamine-induced hyperlocomotion
# Format: in vivo, rat
# condition.description: Rattus norvegicus; rats, route PO, criterion total distance >1500 cm; read-out: ED50 SCOP JNJ-42153605 (Reversal of the effect of JNJ 42153605 on scopolamine-induced hyperlocomotion)
Give measured ED50 for each item. Keep answers brief.
Numbers only, in mg/kg.

compound	assay.system	ED50, mg/kg
Cc1ccncc1NC(=O)c1cnn2c1C(=O)N(c1ccc(C(F)(F)F)cc1)C[C@@H]2C [compound 14]	rats	0.13

Hello, I am looking for reported ED50 with rats for Cc1ccncc1NC(=O)c1cnn2c1C(=O)N(c1ccc(C(F)(F)F)c(C)c1)C[C@@H]2C [compound 38] . Could you help?
0.2

----------
# Test system: rats
# protocol.description: Reversal of the effect of the mGluR2 PAM JNJ-42153605-induced inhibition of scopolamine-induced hyperlocomotion
# Type: in vivo, rat
# condition.description: Rattus norvegicus; rats, route PO, criterion total distance >1500 cm; read-out: ED50 SCOP JNJ-42153605 (Reversal of the effect of JNJ 42153605 on scopolamine-induced hyperlocomotion)
Rule: measured ED50 below 0.5 mg/kg gets 1.0; anything equal to or greater than 0.5 mg/kg gets 0.0.

structure.smiles	label.value
C[C@H]1CN(c2ccc(C(F)(F)F)cc2)C(=O)c2c(C(=O)Nc3cnccc3CO)cnn21	0.0
C[C@H]1CN(c2ccc(C(F)(F)F)cc2)C(=O)c2c(C(=O)Nc3ccnc(CF)c3)cnn21	0.0
C[C@H]1CN(c2ccc(C(F)(F)F)cc2)C(=O)c2c(C(=O)Nc3ccncc3F)cnn21	0.0
C[C@H]1CN(c2ccc(C(F)(F)F)c(Cl)c2)C(=O)c2c(C(=O)Nc3ccccn3)cnn21	0.0

Determine if C[C@H]1CN(c2ccc(C(F)(F)F)cc2)C(=O)c2c(C(=O)Nc3cncc(F)c3)cnn21 shows ED50 strictly lower than 0.5 mg/kg.
1.0

Determine if C[C@H]1CN(c2ccc(C(F)(F)F)cc2)C(=O)c2c(C(=O)Nc3ccc(F)cc3)cnn21 shows ED50 strictly lower than 0.5 mg/kg.
0.0

Determine if Cc1cc(NC(=O)c2cnn3c2C(=O)N(c2ccc(C(F)(F)F)cc2)C[C@@H]3C)ccn1 shows ED50 strictly lower than 0.5 mg/kg.
0.0

Determine if C[C@H]1CN(c2ccc(C(F)(F)F)c(Cl)c2)C(=O)c2c(C(=O)Nc3ccc(F)cn3)cnn21 shows ED50 strictly lower than 0.5 mg/kg.
0.0

Determine if COc1cncc(NC(=O)c2cnn3c2C(=O)N(c2ccc(C(F)(F)F)c(C)c2)C[C@@H]3C)c1 shows ED50 strictly lower than 0.5 mg/kg.
0.0

Determine if Cc1cc(NC(=O)c2cnn3c2C(=O)N(c2ccc(Cl)c(C)c2)C[C@@H]3C)cc(C)n1 shows ED50 strictly lower than 0.5 mg/kg.
0.0

Determine if Cc1cc(NC(=O)c2cnn3c2C(=O)N(c2ccc(C(F)(F)F)c(C)c2)C[C@@H]3C)cc(C)n1 shows ED50 strictly lower than 0.5 mg/kg.
1.0

Determine if C[C@H]1CN(c2ccc(C(F)(F)F)cc2)C(=O)c2c(C(=O)Nc3ccc(F)cn3)cnn21 shows ED50 strictly lower than 0.5 mg/kg.
0.0

Determine if C[C@H]1CN(c2ccc(Cl)c(Cl)c2)C(=O)c2c(C(=O)Nc3cnccn3)cnn21 shows ED50 strictly lower than 0.5 mg/kg.
1.0
